biological target: Coagulation factor XI (Homo sapiens)
Sequence (P03951 19-387 limits assumed): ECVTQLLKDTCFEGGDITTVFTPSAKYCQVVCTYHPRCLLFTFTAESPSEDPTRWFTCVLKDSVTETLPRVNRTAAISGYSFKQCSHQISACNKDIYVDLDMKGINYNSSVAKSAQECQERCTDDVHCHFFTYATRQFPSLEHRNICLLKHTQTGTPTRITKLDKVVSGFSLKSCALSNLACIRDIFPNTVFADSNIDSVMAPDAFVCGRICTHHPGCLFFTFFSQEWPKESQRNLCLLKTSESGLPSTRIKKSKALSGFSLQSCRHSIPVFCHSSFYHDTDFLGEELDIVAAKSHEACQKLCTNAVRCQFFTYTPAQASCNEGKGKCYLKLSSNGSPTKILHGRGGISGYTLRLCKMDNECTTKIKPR
Sequence (P03951 388-625 limits assumed): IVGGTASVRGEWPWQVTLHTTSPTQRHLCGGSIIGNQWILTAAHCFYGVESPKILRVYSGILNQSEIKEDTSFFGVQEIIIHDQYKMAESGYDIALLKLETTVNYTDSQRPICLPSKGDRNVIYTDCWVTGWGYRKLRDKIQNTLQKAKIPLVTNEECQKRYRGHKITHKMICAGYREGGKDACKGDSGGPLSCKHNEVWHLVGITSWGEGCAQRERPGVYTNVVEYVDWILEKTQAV
endpoint-label: Ki (nM)
Field format: number, assumed nM, no unit text.

1) COc1cc(-c2ccccc2)cc(C(Cc2ccccc2)NC(=O)[C@H]2CC[C@H](CN)CC2)n1 (mixture of isomers) : 949

Prompt: Name the reported Ki value associated with the compound NC[C@H]1CC[C@H](C(=O)NC(Cc2ccccc2)c2cccc(-c3ccccc3)n2)CC1 (mixture of isomers)
Completion: 30200

Prompt: Thanks! And NC[C@H]1CC[C@H](C(=O)NC(Cc2ccccc2)c2cc(-c3ccc4c(N)n[nH]c4c3)cc(=O)[nH]2)CC1 (mixture of isomers) ?
Completion: 3.7

Prompt: Thanks! And NC[C@H]1CC[C@H](C(=O)NC(Cc2ccccc2)c2ccnc(-c3ccccc3)c2)CC1 (mixture of isomers) ?
Completion: 320

###

assay: Inhibition of human chymotrypsin
endpoint-label: Ki

Prompt: Name the reported Ki value associated with the compound NC[C@H]1CC[C@H](C(=O)N[C@@H](Cc2ccccc2)c2cc(-c3ccc4c(N)n[nH]c4c3)ccn2)CC1
Completion: > 20.8 µM

###

biological target: Coagulation factor IX (Homo sapiens); assay: Inhibition of human coagulation factor 9a
Sequence (P00740 47-191 limits assumed): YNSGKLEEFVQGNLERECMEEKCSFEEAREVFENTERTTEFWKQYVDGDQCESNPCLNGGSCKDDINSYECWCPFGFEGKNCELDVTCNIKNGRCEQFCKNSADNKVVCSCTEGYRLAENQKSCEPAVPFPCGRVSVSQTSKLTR
Sequence (P00740 227-461 limits assumed): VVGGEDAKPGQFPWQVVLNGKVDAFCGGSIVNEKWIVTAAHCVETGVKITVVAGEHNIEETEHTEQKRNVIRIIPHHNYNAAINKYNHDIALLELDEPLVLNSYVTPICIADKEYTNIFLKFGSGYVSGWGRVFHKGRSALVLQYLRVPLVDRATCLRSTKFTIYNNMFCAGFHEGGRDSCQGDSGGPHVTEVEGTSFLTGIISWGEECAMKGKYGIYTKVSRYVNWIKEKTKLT
endpoint-label: Ki

Prompt: Name the reported Ki value associated with the compound NC[C@H]1CC[C@H](C(=O)N[C@@H](Cc2ccccc2)c2cc(-c3ccc4c(N)n[nH]c4c3)ccn2)CC1
Completion: > 34.9 µM
